System: carbapenem-resistant A. baumannii (CRAB) SIPI-025
Assay type: cell-based, Acinetobacter baumannii
conditions: carbapenem-resistant (CRAB) SIPI-025, 20 h
Where a SMILES comes first, the peptide text is derived from it. [ ]: non-standard residue; d: D form. 2Thi = N[C@@H](Cc1cccs1)C(=O)O
quantityKind: MIC

In: Give MIC for CC(C)C[C@H](NC(=O)[C@H](Cc1ccc(O)cc1)NC(=O)[C@H](CCCCN)NC(=O)[C@H](CC(C)C)NC(=O)[C@H](CC(C)C)NC(=O)[C@H](CCCCN)NC(=O)[C@H](CCCCN)NC(=O)[C@H](Cc1cccs1)NC(=O)[C@H](CC(C)C)NC(=O)[C@H](CCCNC(=N)N)NC(=O)[C@@H](N)CCCCN)C(=O)N[C@@H](CCCNC(=N)N)C(=O)N[C@@H](CCCCN)C(=O)N[C@@H](Cc1cccs1)C(N)=O [UP07] (H-KRL[2Thi]KKLLKYLRK[2Thi]-NH2) tested on carbapenem-resistant A. baumannii (CRAB) SIPI-025.
Out: 2 µg/mL

Cited source: paper PMC7688903
